# Protocol: stability of 4, 6 or 12 in aqueous buffered solutions (μ = 0.15)
# Assay type: physicochemical
# Condition Notes: water, pH 4.5, Water, 25° C., initial conc. 10.0 mg/ml; pH 4.5 (4), 4.31 (6), 4.54 (12); estimated values (*)
Please go through the items and note down their half-life.
The figure you give is taken to be in days; do not add the unit.

Incoming: Field request: half-life | item: NCCCC[C@H](N)C(=O)Nc1ccc2c(c1)CN1C(=O)c3ccccc3C1=N2 [Compound 12]
Outgoing: 108

Incoming: Given the entry CC(C)C[C@H](N)C(=O)Nc1ccc2c(c1)CN1C(=O)c3ccccc3C1=N2 [Compound 6, N-l-leucine derivative of AQ] , report its measured half-life.
Outgoing: 198

Cited source for all entries: patent US4980343A
